These data points were gathered from paper PMC9982066.

Target: Ehrlichia translocated factor-1 (Etf-1) (Ehrlichia chaffeensis, UniProt Q2GG12 1-380)
Assay: fluorescence polarisation
Conditions: both partners purified
Starred links: 1 amine or outer side, 2 acyl side, 3 side chain; linkers in the order of their positions; H or OH if unused. Positions of bridges follow the written chain, without caps; N, C: chain ends. Non-standard residues stand in square brackets, D forms with d. No end group written: not given here. Trimesoyl = O=C(c1cc(C(=O)[*:2])cc(C(=O)[*:3])c1)[*:1]; Phe(4-Me) = Cc1ccc(C[C@H](N)C(=O)O)cc1; d2Nal = N[C@H](Cc1ccc2ccccc2c1)C(=O)O; Dap = NC[C@H](N)C(=O)O; TMA = not defined here; βAla = NCCC(=O)O
Hi there, I'd appreciate the recorded Kd for every entry that follows.
State just the number; it will be interpreted in µM.

Kd lookup needed for YHQ[dP]S[dL][Dap][Phe(4-Me)][d2Nal][dR]R[dR]R[Dap]-{βAla-βAla-Lys(FAM)} (linker N-7-14 via Trimesoyl; not fully specified (N-terminus)) [macrocyclic peptide B7-13, FAM-labelled] , thanks.
6.3

Note, next up: AHQ[dP]S[dL][Dap]F[d2Nal][dR]R[dR]R[Dap] (linker 7-14 via TMA; not fully specified (C-terminus); reading uncertain) [macrocyclic peptide B7-6, FAM-labelled]
11.9
